# PROCEDURE SUMMARY: amyloid nucleation score (Sup35N fusion, yeast selection) (log enrichment); library NNK2; higher = more nucleation; inactive = no reads after selection;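 further: zero at mode of non-aggregating sequences after 7 days selection at 30°C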
RECORDED METRIC: amyloid nucleation score
A bare number is all that is needed in reply.

Problem: Note amyloid nucleation score for the substance shown: IIFVFREYAINMKGVFK
Solution: 0.082

Problem: Note amyloid nucleation score for the substance shown: RELQNLFPHCILWSIIMKPN
Solution: -1.49

Problem: Note amyloid nucleation score for the substance shown: IALFVGFLVDAKDEGIL
Solution: -0.419

Problem: Note amyloid nucleation score for the substance shown: FLNKDGNIV
Solution: -0.022

Problem: Note amyloid nucleation score for the substance shown: KGIYIFRHLCGMDVNMGPMD
Solution: -0.764

Problem: Note amyloid nucleation score for the substance shown: NRETGANCARMPKVNVWEQQ
Solution: 0.865

Problem: Note amyloid nucleation score for the substance shown: FNDRHVCHREKFSRELGFCS
Solution: -0.479

Problem: Note amyloid nucleation score for the substance shown: SIHEMYFKAMDSVH
Solution: -0.276

Problem: Note amyloid nucleation score for the substance shown: ASQRTVA
Solution: 1.6

Problem: Note amyloid nucleation score for the substance shown: RMFWLIVQLGGSFDRLYGFR
Solution: 1.21

Problem: Note amyloid nucleation score for the substance shown: VLVFEVPFMFNGAFTMGCIR
Solution: 7.08

Problem: Note amyloid nucleation score for the substance shown: CSFSADCVSRSGGRSFSP
Solution: -0.834

Problem: Note amyloid nucleation score for the substance shown: NCSYNMNKRASSMFHSGCVV
Solution: 2.81

Problem: Note amyloid nucleation score for the substance shown: GCNRQMSARK
Solution: 4.29

Problem: Note amyloid nucleation score for the substance shown: DGPLSLNSIHFTWLRAMDKV
Solution: -0.297

Problem: Note amyloid nucleation score for the substance shown: RLISYNSCLSWSSWG
Solution: 3.48

Problem: Note amyloid nucleation score for the substance shown: DRYNHKSSMIREVRLLIASY
Solution: -0.123

Problem: Note amyloid nucleation score for the substance shown: TISFELSGMGIPSLWICGSR
Solution: 0.252

Problem: Note amyloid nucleation score for the substance shown: IQLDRSYSHNTSSLQGWHTM
Solution: 0.062

Problem: Note amyloid nucleation score for the substance shown: VSCNSYMGVLMDDGRVETLE
Solution: 0.486

Problem: Note amyloid nucleation score for the substance shown: EFIMTCAQVPRTFDVHSNRS
Solution: 6.48

Problem: Note amyloid nucleation score for the substance shown: YSPSRVS
Solution: -0.493

Problem: Note amyloid nucleation score for the substance shown: HKQRSSASKSV
Solution: -0.321

Problem: Note amyloid nucleation score for the substance shown: LVGYLSSVELDYRWENC
Solution: -0.026

Problem: Note amyloid nucleation score for the substance shown: GIVYVALSHYLAVNTKVFMP
Solution: 0.477

Problem: Note amyloid nucleation score for the substance shown: SMTRLLGRDGYTREYSSSSR
Solution: 0.834

Problem: Note amyloid nucleation score for the substance shown: HLLYPSSMVDRALHGLDTRT
Solution: 5.36

Problem: Note amyloid nucleation score for the substance shown: KYSCTLVPFLLARFDLGSWG
Solution: -0.112

Problem: Note amyloid nucleation score for the substance shown: FRSMFISWVM
Solution: -0.271

// provenance: the supplement of paper PMC12042874
